- Test system: Plasmodium berghei
- Experimental details: Luciferase/luciferin-expressing antifolate-resistant parasites were used to infect a culture of HepG2 cells that were pre-incubated with compounds. Infected hepatocytes emit light due to the luciferase reaction. Assay results are presented as the percent inhibition of light emission compared to control. […]
- Format: functional
- Condition description: sporozoite, PBLUC_HILL_SLOPE 11.6, PBLUC_R_SQUARED 0.257, read-out: LUCIFERASE INFECTION ASSAY - IC50
pIC50: −log10 of the molar value.
Endpoint name: pIC50

| Compound structure | Endpoint name | Readout value |
| --- | --- | --- |
| Nc1ccc(-c2cn3c(-c4ccc(O)cc4)cnc3cn2)cn1 | pIC50 | 4.99 |

---

- Test system: Plasmodium berghei
- Experimental details: Luciferase/luciferin-expressing antifolate-resistant parasites were used to infect a culture of HepG2 cells that were pre-incubated with compounds. Infected hepatocytes emit light due to the luciferase reaction. Assay results are presented as the percent inhibition of light emission compared to control. […]
- Format: functional
- Condition description: sporozoite, FFLUC_HILL_SLOPE 13.5, FFLUC_R_SQUARED 0.0841, HEPG2TOX_HILL_SLOPE 0.312, HEPG2TOX_R_SQUARED 0.567, read-out: LUCIFERASE INFECTION ASSAY - IC50
pIC50: −log10 of the molar value.
Endpoint name: pIC50

| Compound structure | Readout value |
| --- | --- |
| COc1ccc(CC(=O)N2CCC3(CC2)OCc2ccccc2O3)cc1 | < 5.03 |

---

- Test system: Plasmodium berghei
- Experimental details: Luciferase/luciferin-expressing antifolate-resistant parasites were used to infect a culture of HepG2 cells that were pre-incubated with compounds. Infected hepatocytes emit light due to the luciferase reaction. Assay results are presented as the percent inhibition of light emission compared to control. […]
- Format: functional
- Condition description: sporozoite, PBLUC_HILL_SLOPE 3.26, PBLUC_R_SQUARED 0.648, read-out: LUCIFERASE INFECTION ASSAY - IC50
pIC50: −log10 of the molar value.

| Compound structure | pIC50 |
| --- | --- |
| COCCCN1C(=O)N(Cc2ccccc2)C(=O)C12CCN(Cc1cccc(-c3ccco3)c1)CC2 | 5.34 |

---

- System: Plasmodium berghei
- Experimental details: Luciferase/luciferin-expressing antifolate-resistant parasites were used to infect a culture of HepG2 cells that were pre-incubated with compounds. Infected hepatocytes emit light due to the luciferase reaction. Assay results are presented as the percent inhibition of light emission compared to control. […]
- Format: functional
- Condition description: sporozoite, PBLUC_HILL_SLOPE 15.1, PBLUC_R_SQUARED 0.272, read-out: LUCIFERASE INFECTION ASSAY - IC50
pIC50: −log10 of the molar value.
Endpoint name: pIC50

| Compound structure | Measurement target | Readout value |
| --- | --- | --- |
| Cc1noc(C)c1-c1nccc2n[nH]c(-c3ccccc3)c12 | Plasmodium berghei | 5.03 |

---

- Tested on: Plasmodium berghei
- Experimental details: Luciferase/luciferin-expressing antifolate-resistant parasites were used to infect a culture of HepG2 cells that were pre-incubated with compounds. Infected hepatocytes emit light due to the luciferase reaction. Assay results are presented as the percent inhibition of light emission compared to control. […]
- Assay type: functional
- Condition description: sporozoite, PBLUC_HILL_SLOPE 4.03, PBLUC_R_SQUARED 0.181, read-out: LUCIFERASE INFECTION ASSAY - IC50
Endpoint name: IC50 (µM)

| Compound structure | Result unit | Readout value |
| --- | --- | --- |
| Cc1cc(NCc2ccccn2)n2ncc(-c3ccccc3Cl)c2n1 | µM | 5.66 |

The measurements presented in this section are drawn from ChEMBL document CHEMBL4483862.
